System: Onchocerca ochengi
experiment notes: Antiparasitic activity against Onchocerca ochengi assessed as effect on microfilarial mobility at 10 ug/ml measured every 24 hrs for 120 hrs by inverted microscopic analysis
Assay type: functional
readout type: motility % at 10 µg/mL (%)
Reply with just the number (in %).

Consider the molecule shown here: Cc1cc(C(C#N)c2ccc(Cl)cc2)c(Cl)cc1NC(=O)c1cc(I)cc(I)c1O (stereo not given) What is its recorded motility % at 10 µg/mL?
0

// returns reported motility % at 10 µg/mL for input Cc1ccc(NC(=O)c2cc(Br)cc(Br)c2O)cc1
100

Query (molecule): COc1ccc(NC(=O)c2cc(Cl)cc(Cl)c2O)cc1 ; field requested: motility % at 10 µg/mL
50

Need motility % at 10 µg/mL of CC(C)c1cc(C(=O)Nc2ccccc2)c(O)c(C(C)C)c1 , thanks.
50

Suppose we examine the molecule O=C(Nc1ccc(Br)cc1)c1cc(I)cc(I)c1O ; what motility % at 10 µg/mL value has been reported?
100

Which motility % at 10 µg/mL is listed for O=C(Nc1ccccc1)c1cc(I)cc(I)c1O ?
100

Look at this molecule and give its reported motility % at 10 µg/mL. CC(C)c1cc(C(=O)Nc2ccc(Cl)cc2)c(O)c(C(C)C)c1
100

Would you mind telling me what motility % at 10 µg/mL value was observed for Cc1ccc(NC(=O)c2cc(I)cc(I)c2O)cc1 ?
100

Recorded motility % at 10 µg/mL of O=C(Nc1ccc(Cl)cc1)c1cc(Br)cc(Br)c1O , please.
35

I have this molecule here, O=C(Nc1ccccc1)c1cc(Br)cc(Br)c1O , and I need its recorded motility % at 10 µg/mL.
50

So what's the measured motility % at 10 µg/mL for this one? Cc1ccc(NC(=O)c2cc(I)ccc2O)cc1
21

Entry Cc1ccc(NC(=O)c2cc(C(C)C)cc(C(C)C)c2O)cc1 : reported motility % at 10 µg/mL = ?
25

Request the reported motility % at 10 µg/mL associated with CC(C)c1ccc(NC(=O)c2cc(I)cc(I)c2O)cc1
100

motility % at 10 µg/mL for O=C(Nc1ccc(I)cc1)c1cc(I)cc(I)c1O ?
100

Bench note: what motility % at 10 µg/mL did O=C(Nc1ccccc1)c1cc(Cl)cc(Cl)c1O show?
25

Requested read-out: motility % at 10 µg/mL. Entry: COc1ccc(NC(=O)c2cc(C(C)C)cc(C(C)C)c2O)cc1
25

motility % at 10 µg/mL lookup needed for COc1ccc(NC(=O)c2cc(Br)cc(Br)c2O)cc1 , thanks.
50

Look up motility % at 10 µg/mL: O=C(Nc1ccc(F)cc1)c1cc(I)cc(I)c1O
100

// query motility % at 10 µg/mL value for entry O=C(Nc1ccccc1)c1cc(I)ccc1O
25

Would you kindly share the measured motility % at 10 µg/mL for COc1ccc(NC(=O)c2cc(I)ccc2O)cc1 ?
100

So what does the record say about motility % at 10 µg/mL for O=C(Nc1ccc(Cl)cc1)c1cc(Cl)cc(Cl)c1O ?
29

# motility % at 10 µg/mL lookup, item O=C(Nc1ccc(Cl)cc1)c1cc(I)cc(I)c1O
0

Consider the molecule shown here: O=C(Nc1ccc(Cl)cc1)c1cc(I)ccc1O What is its recorded motility % at 10 µg/mL?
100

# get_value(readout='motility % at 10 µg/mL', item= COc1ccc(NC(=O)c2cc(I)cc(I)c2O)cc1 )
100

Returns the measured motility % at 10 µg/mL for the input molecule. Input: Cc1ccc(NC(=O)c2cc(Cl)cc(Cl)c2O)cc1
50
